# target_desc: myeloperoxidase (MPO) (Homo sapiens)
# Sequence (P05164 49-745): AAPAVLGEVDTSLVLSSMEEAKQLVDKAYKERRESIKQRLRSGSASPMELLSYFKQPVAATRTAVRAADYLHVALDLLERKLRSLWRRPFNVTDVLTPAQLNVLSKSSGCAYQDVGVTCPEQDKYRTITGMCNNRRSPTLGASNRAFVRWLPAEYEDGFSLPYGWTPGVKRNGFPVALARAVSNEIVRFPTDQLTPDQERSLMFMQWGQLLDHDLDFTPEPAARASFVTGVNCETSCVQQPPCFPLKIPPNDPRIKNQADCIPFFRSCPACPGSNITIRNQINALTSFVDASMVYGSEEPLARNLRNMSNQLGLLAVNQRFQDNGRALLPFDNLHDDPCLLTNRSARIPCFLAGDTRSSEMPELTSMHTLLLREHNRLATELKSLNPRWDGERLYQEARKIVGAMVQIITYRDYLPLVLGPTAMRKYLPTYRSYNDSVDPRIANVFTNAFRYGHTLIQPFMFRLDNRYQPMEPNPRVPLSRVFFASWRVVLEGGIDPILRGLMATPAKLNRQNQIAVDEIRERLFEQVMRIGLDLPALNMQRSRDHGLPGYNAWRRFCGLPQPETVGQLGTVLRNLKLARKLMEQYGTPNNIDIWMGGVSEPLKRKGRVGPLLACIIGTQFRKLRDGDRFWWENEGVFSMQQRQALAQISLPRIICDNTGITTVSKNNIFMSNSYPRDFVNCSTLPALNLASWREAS
# assay_notes: MPO peroxidation assay (Amplex Red assay)
# Assay type: biochemical
# test_conditions: MPO peroxidation, potency range class; read-out: Amplex Red IC50
Structures can show the parent of a compound that is named as a salt.
measured_property: IC50

>  <compound>
Nc1cc(OCc2cc(Cl)ccc2S(=O)(=O)Cc2ccccc2)c2nn[nH]c2n1 [Example 228, TFA]

>  <IC50>
0.101 to 0.999 µM

$$$$
>  <compound>
Nc1cc(OCc2ccc(C(=O)NCC3CCCCC3)cc2Cl)c2nn[nH]c2n1 [Example 198]

>  <IC50>
0.101 to 0.999 µM

$$$$
>  <compound>
Cc1c(COc2cc(N)nc3[nH]nnc23)cccc1-n1cncn1 [Example 86]

>  <IC50>
0.001 to 0.1 µM

$$$$
>  <compound>
CCC(Oc1cc(N)nc2[nH]nnc12)c1ccc(Cl)c(Cl)c1 (stereo not drawn) [Example 145]

>  <IC50>
0.101 to 0.999 µM

$$$$

Provide the reported IC50 of each entry below, same order.
1. N#Cc1cc(-c2ccc(CO)nc2)ccc1COc1cc(N)nc2[nH]nnc12 [Example 313]
2. CN1CCN(c2ncc(-c3ccc(F)c(COc4cc(N)nc5[nH]nnc45)c3Cl)cn2)CC1 [Example 348]
3. CN(C)CCNC(=O)c1ccc(COc2cc(N)nc3[nH]nnc23)c(Cl)c1 [Example 202]
4. Nc1cc(OCc2cc(C(=O)N3CCNC(=O)C3)ccc2F)c2nn[nH]c2n1 [Example 169]

["0.001 to 0.1 µM", "0.101 to 0.999 µM", "0.001 to 0.1 µM", "0.101 to 0.999 µM"]

Quick request: IC50 for each listed item, please.
1. CCN(C)C(=O)c1ccc(-c2cccc(COc3cc(N)nc4[nH]nnc34)c2)cc1F [Example 116]
2. Nc1cc(OCc2c(F)ccc(Br)c2F)c2nn[nH]c2n1 [Example 236]
3. Nc1cc(OCc2cccc(S(=O)(=O)N3CCOCC3)c2)c2nn[nH]c2n1 [Example 4]
4. COc1ncc(-c2ccc(COc3cc(N)nc4[nH]nnc34)c(OC(F)(F)F)c2)cn1 [Example 288]

1: 0.101 to 0.999 µM; 2: 0.001 to 0.1 µM; 3: 0.101 to 0.999 µM; 4: 0.101 to 0.999 µM

Please go through the list and note IC50 for each compound.
1. CCC(F)(F)C(Oc1cc(N)nc2[nH]nnc12)c1ccccc1 (racemic) [Example 135]
2. CN1CCN(c2cc(-c3ccc(COc4cc(N)nc5[nH]nnc45)c(OC(F)(F)F)c3)ccn2)CC1 [Example 299]
3. Nc1cc(OCc2c(F)ccc(-c3ccc(N4CCOCC4)nc3)c2Cl)c2nn[nH]c2n1 [Example 342]
4. COC(=O)c1cccc(COc2cc(N)nc3[nH]nnc23)c1Cl [Example 24]
5. COc1c(COc2cc(N)nc3[nH]nnc23)cccc1C(F)(F)F [Example 26]
6. Nc1cc(OCc2c(F)cc(Br)cc2F)c2nn[nH]c2n1 [Example 233, TFA]

["0.101 to 0.999 µM", "0.001 to 0.1 µM", "0.001 to 0.1 µM", "0.001 to 0.1 µM", "0.001 to 0.1 µM", "0.001 to 0.1 µM"]
